drug sensitivity score values for the molecules below.
- Tested on: MDCK p60AmotL2-inducible + doxycycline (p60AmotL2 expressing)
- experiment: drug sensitivity score (DSS) from 5-dose viability curve (DSS (area-based score, 0 = no response)); higher = more sensitive (stronger viability inhibition); extreme values may be limits of the assay
- cond: doxycycline: 10 ng/mL; 72 h
Note: the reply should be a number with no unit written.

Below are worked cases with known answers.
> print(dat)
                                   molecule  reported
1  O=C(O)CC1CC(c2ccccc2)=NO1 (centres undefined) [VGX-1027]         0
2  COC(=O)c1ccc([C@H]2c3[nH]c4ccccc4c3C[C@H](C(=O)OC)N2C(=O)CCl)cc1 [RSL3]         0
3  NC(=O)/C(=C/n1cnc(-c2cc(C(F)(F)F)cc(C(F)(F)F)c2)n1)c1cncnc1 [Eltanexor]      19.9
4  COc1cc(OC2CCN(C)CC2)ccc1Nc1ncc2c(n1)n(C1CCCC1)c(=O)n2C [AZ 3146]       6.3
5  Nc1ncnc2c1nc(Cl)n2[C@@H]1O[C@H](CO)[C@@H](O)[C@H]1O [8-chloro-adenosine]      13.6

Enquiry: I am curious: what drug sensitivity score value has been reported for COc1cc2c(N3CCN(C(=O)Nc4ccc(OC(C)C)cc4)CC3)ncnc2cc1OCCCN1CCCCC1 [Tandutinib] ?
Return: 0

Enquiry: Consider the molecule shown here: COc1cccc2c1C(=O)c1c(O)c3c(c(O)c1C2=O)C[C@@](O)(C(=O)CO)C[C@@H]3O[C@H]1C[C@H](N)[C@H](O)[C@H](C)O1 [Doxorubicin] What is its recorded drug sensitivity score?
Return: 9.8

Enquiry: Data request, read-out drug sensitivity score, for CCCN(CCC)C(=O)C1=Cc2ccc(-c3ccc(C(=O)N4CCCC4)cc3)cc2N=C(N)C1 [Motolimod]
Return: 2.5

Enquiry: Can you share its drug sensitivity score? I mean this molecule: C#Cc1cccc(Nc2ncnc3cc(OCCOC)c(OCCOC)cc23)c1 [Erlotinib]
Return: 15.4

----------
drug sensitivity score by entry:
- System: MDCK p60AmotL2-inducible + doxycycline (p60AmotL2 expressing)
- experiment: drug sensitivity score (DSS) from 5-dose viability curve (DSS (area-based score, 0 = no response)); higher = more sensitive (stronger viability inhibition); extreme values may be limits of the assay
- cond: doxycycline: 10 ng/mL; 72 h
Please respond with just the number, no unit label.

compound	study-system	drug sensitivity score
Nc1nc(NC2CC2)cc(-c2cccc(Cl)c2Cl)n1 [TH588]	MDCK p60AmotL2-inducible + doxycycline (p60AmotL2 expressing)	0

Enquiry: Please report the recorded drug sensitivity score for CC(C)C[C@H](NC(=O)[C@H](CCc1ccccc1)NC(=O)CN1CCOCC1)C(=O)N[C@@H](Cc1ccccc1)C(=O)N[C@@H](CC(C)C)C(=O)[C@@]1(C)CO1 [Carfilzomib] .
Return: 25.7

Enquiry: Name the recorded drug sensitivity score for COc1cc(C(=O)O)ccc1NC(=O)[C@@H]1N[C@@H](CC(C)(C)C)[C@](C#N)(c2ccc(Cl)cc2F)[C@H]1c1cccc(Cl)c1F [Idasanutlin] .
Return: 16.2

Enquiry: // lookup drug sensitivity score for Nc1ncn([C@@H]2O[C@H](CO)[C@@H](O)[C@H]2O)c(=O)n1 [Azacitidine]
Return: 0.7

Enquiry: Param item = O=C(/C=C/c1cccc(S(=O)(=O)Nc2ccccc2)c1)NO [Belinostat] ; retrieve measured drug sensitivity score.
Return: 19

Enquiry: What value of drug sensitivity score has been reported for the following compound? O=c1ncn2nc(Sc3ccc(F)cc3F)ccc2c1-c1c(Cl)cccc1Cl [Neflamapimod]
Return: 0

Enquiry: Entry CC[C@@H]1C(=O)OC[C@@H]1Cc1cncn1C [Pilocarpine] : reported drug sensitivity score = ?
Return: 0

Enquiry: Recorded drug sensitivity score of CC(=O)c1c(C)c2cnc(Nc3ccc(N4CCNCC4)cn3)nc2n(C2CCCC2)c1=O [Palbociclib] , please.
Return: 4.3
